Source: PubChem BioAssay

List of z-score values.
- method description: yeast growth modulation, basal conditions, primary screen, YJM789 clinical isolate, OD600, 24 h (AID 1089);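 also: growth of clinical yeast isolate S. cerevisiae YJM 789 seeded 1000 cells per well; test concentration not given here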
- test conditions: S. cerevisiae YJM789 growth, higher = more signal, called active from +8 up or from −8 down

compound | z-score
CC(C)OC(=O)C=C1C[C@@H](c2ccc(C(F)(F)F)cc2)O[C@@H](c2ccc(C(F)(F)F)cc2)O1 | -1.84
O=C(CS)NCCCCCNC(=O)[C@@H]1C[C@@H]2C(=O)N3CCC[C@H]3C(=O)N2[C@@H]1c1cccc(OCCO)c1 | 0.147
C=C(C(=O)CC[C@@H](OC(C)=O)c1ccc(CO)o1)C(C)C | -2.4
O=C1OCCC=C[C@H]2OC34C=CCN(Cn5nnc6ccccc65)C(=O)[C@H]3N(CCCCCCO)C(=O)[C@@H]4C12 (stereo not given in full) | 0.298
CCCCO[C@H]1C[C@H]2C(I)=C[C@@H]1C(=O)[C@]21CO1 | -1.88
COc1ccc([Si](C)(C)[C@@H]2[C@@H](CC(=O)N3Cc4ccccc4C[C@H]3CO)O[C@]3(C(=O)N(C)c4ccccc43)[C@H]2C)cc1 | -0.912
COC(=O)[C@H](Cc1ccccc1)N1CC(/C=C/C2CC2)=C[C@H]1[C@H](O)Cc1ccccc1 | -0.457
CN(C)CCCNC(=O)[C@@H]1c2ccccc2C(=O)N(Cc2ccccc2Cl)[C@H]1c1ccc(CO)cc1 | -0.34
CCOC(=O)C[C@H]1[C@H](OC(=O)Cc2ccc3c(c2)OCO3)[C@@H](NC(=O)CC(C)C)c2cc(OCCCO)ccc2N1C(=O)Cc1ccc(OC)cc1 | -1.88
COCCOC(=O)N1C(=O)[C@@]2(c3cc(C#CCNC(N)=O)ccc31)[C@H](C(=O)N1CCc3cc(OC)c(OC)cc3C1)[C@H]1C(=O)O[C@H](c3ccccc3)[C@H](c3ccccc3)N1[C@@H]2c1ccccc1OCCO | -0.959
C=CCC(OC(C)=O)[C@@H]1[C@@H](N(Cc2ccc(-c3ccccc3)cc2)C(=O)Cc2ccc(F)cc2)c2cc(OCCCO)ccc2N1C(=O)Cc1ccc(OC)cc1 (stereo not given in full) | 0.111
O=C1OCCC/C=C\[C@H]2OC34C=CCN(CCN5CCOCC5)C(=O)[C@H]3N(CCCCCCO)C(=O)[C@@H]4C12 (stereo not given in full) | -1.84
C=CCC(OC(C)=O)[C@@H]1[C@@H](N(Cc2cc3ccccc3o2)C(=O)c2ccc(C)cc2)c2cc(OCCCO)ccc2N1C(=O)Cc1ccc(OC)cc1 (stereo not given in full) | 0.0303
O=C1OCC=C[C@H]2OC34C=CCN(Cc5ccccc5)C(=O)[C@H]3N(CCCCCCO)C(=O)[C@@H]4[C@@H]12 (stereo not given in full) | -0.997
CCCCCCCCCCC(O)C1C=CC2C(=O)N(C)C(=O)C2N1NC(=O)OC(C)(C)C (stereo not given) | 0.258
